The reported measurements were obtained from patent US20220389066A1.

Target Entity: T1, ZH 09 as periplasmic ABD fusion AQHDEALE-[ZH 09]-VDYV-[ABD]-YVPG (Streptococcus strain G148, UniProt P19909 254-299, limits assumed)
T1 construct: domain: GA3
Assay Notes: SPR (Biacore 2000) screening; periplasmic Z-ABD captured on anti-ABD antibody, 200 nM boxA(disulfide); 1:1 model
Protocol: Biacore screening of Z variants: The binding of Z variants to boxA(disulfide) was analyzed in an affinity screening using a Biacore 2000 instrument. A polyclonal goat anti-ABD antibody (goat anti-ABD) was immobilized on CM5 chip surfaces basically as described for other proteins in Example 3. For the kinetic screening, analytes were injected in two steps. First, a Z-ABD (where ABD is GA3) periplasmic extract was injected over the surface at 5 μl/min for 10 min. […]
pKd: −log10 of the molar value.
Result Type: pKd

INSERT INTO results (binder, test_result) VALUES
  ('boxA(disulfide), disulfide linked form of A-box domain of HMGB1 (other, disulfide C23-C45, also called b-boxA(disulfide)) MGKGDPKKPRGKMSSYAFFVQTCREEHKKKHPDASVNFSEFSKKCSERWKTMSAKEKGKFEDMAKADKARYEREMKTYIPPKGETKKKF', '~7.04');
